This collection of values is drawn from patent US20250339445A1.

method: Plasma half-life
Assay type: in vivo, mice
condition context: mouse, read-out: plasma t1/2 (converted)
readout type: half-life
Quick note: number first, unit second.

Give half-life for the following molecule: O=C1Nc2cc(C(=O)N3CCC(Cc4ccccc4)CC3)ccc2Nc2ccccc21 [Compound 1]
2.7 h
